# assayTarget: follicle-stimulating hormone (FSH) receptor (Rattus norvegicus, UniProt P20395)
# Construct: endogenous in cells; host or cells: primary rat granulosa cells
# Sequence (P20395 18-692): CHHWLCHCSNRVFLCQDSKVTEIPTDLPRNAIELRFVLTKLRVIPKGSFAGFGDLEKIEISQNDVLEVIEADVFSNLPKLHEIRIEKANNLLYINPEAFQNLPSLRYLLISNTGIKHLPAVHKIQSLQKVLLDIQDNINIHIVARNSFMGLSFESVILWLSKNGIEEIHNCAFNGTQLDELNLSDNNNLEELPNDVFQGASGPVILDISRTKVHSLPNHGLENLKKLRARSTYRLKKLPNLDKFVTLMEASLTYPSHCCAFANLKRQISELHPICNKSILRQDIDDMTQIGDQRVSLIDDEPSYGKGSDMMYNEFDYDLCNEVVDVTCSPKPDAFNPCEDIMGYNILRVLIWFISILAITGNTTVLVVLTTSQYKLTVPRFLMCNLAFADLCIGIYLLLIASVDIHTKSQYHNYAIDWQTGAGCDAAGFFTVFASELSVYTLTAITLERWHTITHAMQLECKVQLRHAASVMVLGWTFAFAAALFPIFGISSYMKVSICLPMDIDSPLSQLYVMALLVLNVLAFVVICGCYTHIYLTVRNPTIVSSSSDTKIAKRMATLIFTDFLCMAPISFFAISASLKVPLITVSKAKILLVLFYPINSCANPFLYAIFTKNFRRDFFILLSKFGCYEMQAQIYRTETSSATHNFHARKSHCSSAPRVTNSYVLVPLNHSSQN
# protocolDescription: Rat granulosa EC50 FSH (Assay B)
# Format: cell-based
pEC50: −log10 of the molar value.
quantityKind: pEC50

Exercise: Record request: pEC50 value, item COc1cc2c(cc1C1=NC([Si](C)(C)C)N=N1)-c1c(c(C(=O)N3CCOCC3(C)C)nn1-c1ccsc1)CO2 (stereo not shown)
Key: 5.30 to 6.00

----------
# assayTarget: FSHR (Homo sapiens)
# Construct: expressed in transfected cells; host or cells: CHO (Cho-FSHR-LUC-1-1-43)
# Sequence (P23945 18-695): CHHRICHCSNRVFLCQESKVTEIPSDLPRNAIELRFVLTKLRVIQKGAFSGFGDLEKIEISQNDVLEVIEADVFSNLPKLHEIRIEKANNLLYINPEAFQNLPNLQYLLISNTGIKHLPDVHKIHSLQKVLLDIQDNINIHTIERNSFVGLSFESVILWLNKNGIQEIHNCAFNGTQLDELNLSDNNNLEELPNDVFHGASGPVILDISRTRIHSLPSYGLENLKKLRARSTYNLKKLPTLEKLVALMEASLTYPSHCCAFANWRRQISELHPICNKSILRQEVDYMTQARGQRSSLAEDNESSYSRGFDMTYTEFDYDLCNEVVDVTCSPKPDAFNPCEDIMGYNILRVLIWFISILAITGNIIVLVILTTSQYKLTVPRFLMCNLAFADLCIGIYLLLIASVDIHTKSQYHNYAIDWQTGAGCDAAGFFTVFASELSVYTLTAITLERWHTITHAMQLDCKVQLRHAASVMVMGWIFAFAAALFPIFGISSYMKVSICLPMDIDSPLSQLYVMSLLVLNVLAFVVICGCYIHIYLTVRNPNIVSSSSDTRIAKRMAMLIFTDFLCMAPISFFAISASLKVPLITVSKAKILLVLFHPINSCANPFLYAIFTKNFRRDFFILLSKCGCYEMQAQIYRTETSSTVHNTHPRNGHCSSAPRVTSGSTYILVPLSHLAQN
# protocolDescription: EC50 of cyclic AMP production in CHO FSHR cells + EC20 FSH (Assay A)
# Assay type: cell-based
# measurementSetup: CHO FSHR cells + EC20 FSH, cAMP HTRF; read-out: Assay A: EC50 of cyclic AMP production
Documented EC50 across a set of compounds

Below, 4 compounds whose answers are already recorded.
compound: COc1cc2c(cc1-c1ccns1)-c1c(c(C(=O)N(C)C(C)(C)C)nn1-c1ccsc1)CO2 [Compound 105]
EC50: < 0.1 µM
//
compound: COc1cc2c(cc1-c1ccn(C)c1)-c1c(c(C(=O)N(C)CC3(C)COC3)nn1-c1ccsc1)CO2 [Compound 101]
EC50: < 0.1 µM
//
compound: COc1cc2c(cc1-c1ccn(C)n1)-c1c(c(C(=O)N3CCOCC34COC4)nn1-c1ccsc1)CO2 [Compound 154]
EC50: < 0.1 µM
//
compound: COc1cc2c(cc1S(=O)(=O)C(C)C)-c1c(c(C(=O)N3CCOCC3(C)C)nn1-c1ccsc1)CO2 [Compound 112]
EC50: 1 to 5 µM

Exercise: So what's the measured EC50 for this one? [2H]C([2H])([2H])N(CCN(C(=O)c1nn(-c2ccsc2)c2c1COc1cc(OC)c(CC(C)C)cc1-2)C([2H])([2H])[2H])C(C)=O [Compound 82]
Key: < 0.1 µM

Exercise: Given the entry [2H]C([2H])([2H])OCC1(N(C(=O)c2nn(-c3ccsc3)c3c2COc2cc(OC)c(S(=O)(=O)C(C)C)cc2-3)C([2H])([2H])[2H])COC1 [Compound 200] , report its measured EC50.
Key: < 0.1 µM

Exercise: Suppose we examine the compound COc1cc2c(cc1C=C(C)C)-c1c(c(C(=O)NCCCN3CCOC3=O)nn1-c1ccsc1)CO2 [Compound 9] ; what EC50 value has been reported?
Key: 1 to 5 µM
